apparent KD of MS2 coat protein values, listed per item
System: MS2 coat protein
assayMethodText: apparent KD of MS2 coat protein; higher = weaker reporter binding
setupConditions: Eterna round: R107; input ligand: arginine 13.2 mM
Please give a number only; it is taken to be in nM.

Sample records with apparent KD of MS2 coat protein:
constructSequence	subjectOfTest	valueType	testValue
UGUAAUGGGAUCAACCCAUGAGAGUCUGAAGGAGCGAUCGUAAGAUCAGGUAGGUCGCGGGAGACAUGAGGAUCACCCAUGUAUA [#23 Exclusion - Arginine A]	MS2 coat protein	apparent KD of MS2 coat protein	27.2
UGGUUUGUGAUGGAUACCAGCAGAGAAAACGUUUAUCCUAACAUGAGGAUCACCCAUGUAUGCCCUUGGCAGCUGUUGUGGGCUA [8.S]	MS2 coat protein	apparent KD of MS2 coat protein	27.5
AUAACAUGAGGAUCACCCAUGUAAGCAGAUACCAGCUAGGAAACUAGCCCUUGGCAGCUGCAAGGUGAUCCUGCUGCCAAGGUAU [(M1)-(M2)-(T1)-(T2)-(M)'-(T)'_Design7]	MS2 coat protein	apparent KD of MS2 coat protein	117
AUGCCGGGCCGAAGGAGCGCAAUAGAAUGACAUGAGGAUCACCCAUGUGUGUGAUGUGGGUUGCAGGUAGGUCGCGGCCCGGCAU [#12 Exclusion - Arginine B]	MS2 coat protein	apparent KD of MS2 coat protein	17.6
AUAAUUGGGUUAAUUAGUUUUAGGUCCAGUCGAGGACCGGUACGGCCGCCACUCGUUCCGAGAUACAUGAGGAUCACCCAUGUUA [JR_ExcTryptoA_Sub015]	MS2 coat protein	apparent KD of MS2 coat protein	17.3

Per the records, this sequence ( UGUAUGGACUGAAGGAGCGCCUCAAAAUAACAUGAGGAUCACCCAUGUAAGGCGAAAGCCGGGCAGGUAGGUCGCAGUCCAUACU [ArgBX 3 #StaticStem #MS2Late] ) has apparent KD of MS2 coat protein equal to 15.8

Memo: UGAGAGGGCGGAAGGAGCGACAUGAGGAUCACCCAUGUCUCCCGUUAUGGGAGUUCUUUAGGUCAGGUAGGUCGCCGGCCUCUCA [#1 Exclusion - Arginine B Attempt #10 (Inspired by Omei)] , reported apparent KD of MS2 coat protein: 94.3

The sequence identified as ACAUGAGGAUCACCCAUGUACGGUAUCAAUCGAGGACCGGUACGGCCGCCACUCGGAAAUAGAAGCGAUUAUUAGUGUUCUUUGU [Same State - Tryptophan A / A] registered its apparent KD of MS2 coat protein at 16.1

Measured apparent KD of MS2 coat protein of UGGCAAGAGGGAAGGAGCGUCAGCUGAGUCACAUGAGGAUCACCCAUGUAGCACAUAGUGUGACAGGUAGGUCGCCCUCUGCCGU [SS-ArgB10] : 6.72

Form: sequence = AAAAUAUAGACGGCCGCCACUAUAAACAUGAGGAACAUGAGGAUCACCCAUGUAUGAGGAUCACCUAGGACCGGGUCAUAUAAAA [AstrosExyTryB#1] ; apparent KD of MS2 coat protein = 28.6

Form: sequence = AAUUAUCAGUCGGCCGCCACUGACACAUGAGGAUCACCCAUGUAACUUGGGUUAAAUUUACUGAACAGGACCGGGACAAAGGCUA [JR_ExcTryptoB_Sub009] ; apparent KD of MS2 coat protein = 114
